System: XIP peptide (Xip251-270) binding
Assay: small-molecule binders of XIP peptide, primary screen, biochemical, small-molecule microarray, fluorescence 635/667 nm, 0.1 µg/mL protein (AID 1182)
Conditions: fluorescent protein binding, 635 nm, higher = more signal, called active from +8 up or from −8 down
Values of composite z-score greater than or equal to 1 map to fulfilled; values below map to not fulfilled.

The following molecules have reported results that may help.
>  <molecule>
O=C1OCC=C[C@H]2OC34C=CCN(c5ccc6ccccc6c5)C(=O)[C@H]3N(CCCCCO)C(=O)[C@@H]4[C@@H]12 (some centres not stated)

>  <measured.on>
XIP peptide (Xip251-270) binding

>  <assigned.class>
not fulfilled

$$$$
>  <molecule>
CC(C)N1CC=CC23O[C@@H]4/C=C\CCCOC(=O)C4[C@H]2C(=O)N(CCCCCCO)[C@@H]3C1=O (some centres not stated)

>  <measured.on>
XIP peptide (Xip251-270) binding

>  <assigned.class>
fulfilled

$$$$
>  <molecule>
CC(C)C(=C=CC[C@@H](O)c1cccc(OCCO)c1)C[C@@H](O)c1ccccn1

>  <measured.on>
XIP peptide (Xip251-270) binding

>  <assigned.class>
not fulfilled

$$$$
>  <molecule>
Cc1ccc(C(C)CC(O)C2C=CC3C(=O)N(c4ccccc4)C(=O)C3N2Nc2ccc(C#N)cc2)o1 (configuration not stated)

>  <measured.on>
XIP peptide (Xip251-270) binding

>  <assigned.class>
not fulfilled

$$$$
>  <molecule>
COc1ccc(C#Cc2ccc3c(c2)[C@]2(C(=O)N3)[C@H](C(=O)N3CCCCCCC3)[C@H]3C(=O)O[C@H](c4ccccc4)[C@H](c4ccccc4)N3[C@@H]2c2ccc(O)cc2)cc1

>  <measured.on>
XIP peptide (Xip251-270) binding

>  <assigned.class>
fulfilled

$$$$

Ask | Reported composite z-score reaches at least 1 for COCCOC(=O)N1C(=O)[C@@]2(c3cc(C#Cc4ccc(OC)cc4)ccc31)[C@H](c1ccc(OCCO)cc1)N1[C@H](c3ccccc3)[C@H](c3ccccc3)OC(=O)[C@H]1[C@@H]2C(=O)Nc1nc2ccccc2s1 ?
Reply | not fulfilled

Ask | Also C=CCNC(=O)[C@H]1[C@@H]2C(=O)O[C@@H](c3ccccc3)[C@@H](c3ccccc3)N2[C@@H](c2ccc(O)cc2)[C@]12C(=O)N(C(=O)OCCOC)c1ccc(C#CCC(C(=O)OC)C(=O)OC)cc12 , if possible.
Reply | fulfilled

Ask | Continue with C[C@]1(C(=O)NCC(F)(F)F)c2ccccc2C(=O)N(Cc2ccccc2)[C@H]1c1ccc(CO)cc1
Reply | not fulfilled

Ask | Further, for COC(=O)C1=CC(CCCO)=CC(c2ccc(CN3CCCC3)cc2)N(Cc2cc3c(cc2Br)OCO3)C=C1C(=O)OC (configuration not stated) ?
Reply | fulfilled

Ask | Further, for [N-]=[N+]=NCc1ccccc1[C@H]1OC(c2ccc(OCCCO)cc2)=N[C@@]1(CCS(=O)(=O)c1ccccc1)C(=O)NCc1ccccc1 ?
Reply | not fulfilled

Ask | Further, for CN(C)CCCNC(=O)[C@@H]1c2ccccc2C(=O)N(C2CCCCC2)[C@H]1c1ccc(CO)cc1 ?
Reply | fulfilled

Ask | And what about the molecule C=CCC(OC(C)=O)[C@@H]1[C@@H](N(Cc2cc3ccccc3o2)C(=O)c2ccc(-c3ccccc3)cc2)c2cc(OCCCO)ccc2N1C(=O)Cc1ccc(OC)cc1 (some centres not stated) ?
Reply | not fulfilled
